Molecular target: Fibroblast growth factor receptor 3 (Homo sapiens);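 further: each value is a mean percent inhibition of FGFR3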
Conditions: at 0.1 µM
value.kind: inhibition (%)
One number for each entry, in %.

Here's what some known entries look like.
- chemical.smiles: "O=C(Nc1n[nH]c2nc(-c3ccco3)c(Br)cc12)C1CC1"
  inhibition (%): 6.29
- chemical.smiles: "NC(=O)c1cccc(Nc2nccc(Nc3cccc4[nH]ncc34)n2)c1"
  inhibition (%): -3.38
- chemical.smiles: "COc1ccc(COc2ccc(Cc3cnc(N)nc3N)cc2OC)cc1"
  inhibition (%): 2.29
- chemical.smiles: "CCN1CCC(CC(=O)Nc2n[nH]c3nc(-c4cccs4)c(Br)cc23)CC1"
  inhibition (%): -1.64

Q. For Fibroblast growth factor receptor 3 (Homo sapiens), provide inhibition of `CCn1c(-c2nonc2N)nc2c(C#CC(C)(C)O)nc(OC[C@@H](N)c3ccccc3)cc21` please.
A. -1.33

----------
Molecular target: Dual specificity protein kinase CLK2 (Homo sapiens) (UniProt P49760);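 further: reported values are mean percent inhibition of CLK2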
Sequence (P49760 whole entry, looked up): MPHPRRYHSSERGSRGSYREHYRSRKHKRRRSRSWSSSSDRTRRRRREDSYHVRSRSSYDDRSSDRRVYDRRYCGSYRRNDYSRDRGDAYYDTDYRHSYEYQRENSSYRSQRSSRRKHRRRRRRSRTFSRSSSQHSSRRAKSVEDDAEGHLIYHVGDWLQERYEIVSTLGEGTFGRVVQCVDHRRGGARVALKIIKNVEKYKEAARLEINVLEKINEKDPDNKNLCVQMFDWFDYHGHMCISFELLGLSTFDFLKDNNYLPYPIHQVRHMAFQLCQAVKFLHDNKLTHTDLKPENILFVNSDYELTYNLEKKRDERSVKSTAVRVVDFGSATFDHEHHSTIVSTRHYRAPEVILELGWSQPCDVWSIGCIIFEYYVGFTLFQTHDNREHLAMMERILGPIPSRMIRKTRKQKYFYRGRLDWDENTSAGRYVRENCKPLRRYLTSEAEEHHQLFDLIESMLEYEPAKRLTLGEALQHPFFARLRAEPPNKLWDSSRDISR
Conditions: at 1 µM
Record form. Attribute: inhibition. Fill in for each entry.
Numbers only, in %.

- molecule: "CNC(=O)c1cncc(/C=C/c2c(Cl)cccc2Cl)c1"
  unit.abbreviation: "%"
  recorded.value: 5.66
- molecule: "CCn1c(-c2nonc2N)nc2cncc(C(=O)N3CC[C@H](N)C3)c21"
  unit.abbreviation: "%"
  recorded.value: 21.6
- molecule: "COc1cc2ncn(-c3cc(OCc4ccccc4Cl)c(C(N)=O)s3)c2cc1OC"
  unit.abbreviation: "%"
  recorded.value: 3.23

Please look at the items below and tell me inhibition for each one, in order.
1. CS(=O)(=O)Nc1ccc(N/C=C2\C(=O)Nc3ccccc32)cc1
2. CCc1cccc(NC(=O)Nc2ccc(Oc3ccc4nc(NC(=O)OC)[nH]c4c3)cc2)c1
3. COc1cc2ncn(-c3cc(O[C@@H](C)c4ccccc4Cl)c(C(N)=O)s3)c2cc1OC
4. c1cnn2ncc(-c3ccnc(Nc4ccc5c(c4)OCCO5)n3)c2c1
5. CN(C)c1cc2c(Nc3ccc4nc(Cc5ccccc5)[nH]c4c3)ncnc2cn1
6. Cc1cc(O)cc(C)c1/C=C/c1cncc(-c2nn[nH]n2)c1
7. COc1ccc2cc(-c3c(-c4ccncc4)nc(-c4ccc([S+](C)[O-])cc4)n3C)ccc2c1 (stereo not given)
8. CCn1c(-c2nonc2N)nc2cnc(Oc3cccc(NC(=O)c4ccc(OCCN5CCOCC5)cc4)c3)cc21

A.
1: 3.62; 2: 1.38; 3: 0.86; 4: 97.6; 5: 1.7; 6: 1.31; 7: 1.33; 8: -0.12

----------
Target: Serine/threonine-protein kinase D1 (Homo sapiens) (UniProt Q15139);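 further: values given as mean inhibition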
Sequence (Q15139 whole entry): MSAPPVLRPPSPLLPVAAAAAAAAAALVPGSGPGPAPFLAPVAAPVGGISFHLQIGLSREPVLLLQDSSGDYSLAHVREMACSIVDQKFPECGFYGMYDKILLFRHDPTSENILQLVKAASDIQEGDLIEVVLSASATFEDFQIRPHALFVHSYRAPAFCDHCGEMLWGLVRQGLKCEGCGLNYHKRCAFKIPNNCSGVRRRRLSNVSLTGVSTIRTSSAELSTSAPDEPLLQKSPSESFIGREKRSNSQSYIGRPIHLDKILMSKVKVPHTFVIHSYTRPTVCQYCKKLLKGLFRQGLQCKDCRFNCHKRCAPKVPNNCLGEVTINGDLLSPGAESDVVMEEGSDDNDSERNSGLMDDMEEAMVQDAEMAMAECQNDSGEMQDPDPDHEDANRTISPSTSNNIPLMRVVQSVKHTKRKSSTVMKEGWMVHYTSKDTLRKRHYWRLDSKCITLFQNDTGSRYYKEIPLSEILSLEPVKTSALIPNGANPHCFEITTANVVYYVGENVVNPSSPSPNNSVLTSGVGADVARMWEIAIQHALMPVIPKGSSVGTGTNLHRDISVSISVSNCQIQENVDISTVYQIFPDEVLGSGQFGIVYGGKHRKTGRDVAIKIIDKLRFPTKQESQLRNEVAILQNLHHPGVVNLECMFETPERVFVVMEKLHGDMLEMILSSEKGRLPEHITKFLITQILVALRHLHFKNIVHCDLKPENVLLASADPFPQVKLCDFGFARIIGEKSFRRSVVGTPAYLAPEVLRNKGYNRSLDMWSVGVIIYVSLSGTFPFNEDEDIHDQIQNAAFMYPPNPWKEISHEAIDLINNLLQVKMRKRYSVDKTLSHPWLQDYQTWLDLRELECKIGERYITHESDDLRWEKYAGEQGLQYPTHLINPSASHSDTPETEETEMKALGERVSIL
Settings: at 0.1 µM
Record form. Attribute: inhibition. Fill in for each entry.
Answers are plain numbers, in %.

Here's what some known entries look like.
- compound: "COc1ccc2cc(-c3c(-c4ccncc4)nc(-c4ccc([S+](C)[O-])cc4)n3C)ccc2c1 (stereo unspecified)"
  recorded.value: 2.99
- compound: "CS(=O)(=O)CCN(CC#N)Cc1ccc(-c2ccc3ncnc(Nc4ccc(OCc5cccc(F)c5)c(Cl)c4)c3c2)o1"
  recorded.value: -2.21
- compound: "Fc1cccc(COc2ccc(Nc3ncnc4sc(-c5cccs5)cc34)cc2Cl)c1"
  recorded.value: 0.09
- compound: "O=C1NC(=O)C(c2ccc(Cl)cc2)=C1Nc1ccc(Cl)c(C(=O)O)c1"
  recorded.value: -1.33
- compound: "CN(C)c1cc2c(Nc3ccc4nc(Cc5ccccc5)[nH]c4c3)ncnc2cn1"
  recorded.value: 4.29

Please look at the items below and tell me inhibition for each one, in order.
1. O=C1Nc2ccc(C(=O)c3ccco3)cc2C1=Cc1cc(Cl)c(O)c(Cl)c1
2. COc1cc2ncn(-c3cc(OCc4ccccc4C(F)(F)F)c(C(N)=O)s3)c2cc1OC
3. O=C1NC(=O)C(N2CCc3ccccc32)=C1c1ccc(Cl)cc1

A.
1. 2.76
2. 0.73
3. 3.74

Please look at the items below and tell me inhibition for each one, in order.
1. Nc1nc(-c2ccccn2)c(-c2ccc3ncccc3n2)s1
2. CS(=O)(=O)CCNCc1nc(-c2ccc3ncnc(Nc4ccc(F)c(Cl)c4)c3c2)cs1
3. COc1ccc(-c2nn3ncccc3c2-c2ccnc(Nc3ccc(Cl)c(C(F)(F)F)c3)n2)cc1
4. CCN1CCC(CC(=O)Nc2n[nH]c3nc(-c4cccs4)c(Br)cc23)CC1
5. CCCN1CCC=C(c2ccc(Nc3nc(Nc4ccccc4C(N)=O)c4cc[nH]c4n3)c(C)c2)C1
6. CN1CCC(C(=O)Nc2n[nH]c3nnc(-c4ccccc4)cc23)CC1
7. Nc1ncnc2occ(-c3ccc(NC(=O)Nc4cccc(C(F)(F)F)c4)cc3)c12

A.
1: 2.38; 2: 1.88; 3: 2.22; 4: -1.83; 5: 33.8; 6: 5.4; 7: 5.29

Q. Name the reported inhibition value associated with the compound `O=C(Nc1n[nH]c2nc(-c3ccco3)c(Br)cc12)C1CC1`
A. 2.8

----------
Molecular target: Leucine-rich repeat serine/threonine-protein kinase 2 (Homo sapiens);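 further: reported values are averaged percent inhibition of LRRK2 kinase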
Details: at 0.1 µM
value.kind: inhibition (%)
Give bare numbers, in %.

- chemical.smiles: "CCn1c(-c2nonc2N)nc2cnc(Oc3cccc(NC(=O)c4ccc(OCCN5CCOCC5)cc4)c3)cc21"
  unit.abbreviation: "%"
  recorded.value: 0.83

Please look at the items below and tell me inhibition for each one, in order.
1. N#Cc1c(NC(=O)c2cccc3ccccc23)sc2c1CCCC2
2. COc1cc2ncn(-c3cc(O[C@@H](C)c4ccccc4Cl)c(C(N)=O)s3)c2cc1OC
3. CS(=O)(=O)CCN(CC#N)Cc1ccc(-c2ccc3ncnc(Nc4ccc(OCc5cccc(F)c5)c(Cl)c4)c3c2)o1
4. Cc1ccc(C(=O)NC2CCCCC2)cc1-c1ccc(C(=O)NCC2CC2)cc1
5. COc1cc2ncn(-c3cc(OCc4ccccc4Cl)c(C(N)=O)s3)c2cc1OC
6. COc1ccc(-c2coc3ncnc(N)c23)cc1
7. CCn1c(-c2nonc2N)nc2c(N3CCCC3)nccc21
8. CCn1c(-c2nonc2N)nc2ccncc21

A.
1: 1.35; 2: 10.9; 3: -6.54; 4: 6.21; 5: 2.12; 6: 3.62; 7: -2.19; 8: 1.49

Please look at the items below and tell me inhibition for each one, in order.
1. CCc1cccc(NC(=O)Nc2ccc(Oc3ccc4nc(NC(=O)OC)[nH]c4c3)cc2)c1
2. Cc1ccc(NC(=O)c2ccnc(N3CCCC3)c2)cc1-c1ccc(C(=O)NCC2CC2)cc1
3. Nc1ncnc2occ(-c3ccc(NC(=O)Nc4cc(C(F)(F)F)cc(C(F)(F)F)c4)cc3)c12

A.
[9.23, 1.63, 9.63]

----------
Molecular target: Serine/threonine-protein kinase Nek6 (Homo sapiens);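 further: values are mean inhibition of NEK6 from the GSK PKIS screen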
Settings: at 1 µM
value.kind: inhibition (%)
Numbers only, in %.

Here's what some known entries look like.
- chemical.smiles: "COC(=O)Nc1nc2cc(Oc3ccc(NC(=O)Nc4cccc(C(=O)O)c4)cc3)ccc2[nH]1"
  inhibition / %: -0.54
- chemical.smiles: "CCCN1CCC(Oc2cc(Nc3nc(Nc4cccc(F)c4C(N)=O)c4cc[nH]c4n3)c(OC)cc2Cl)CC1"
  inhibition / %: -2.04
- chemical.smiles: "COc1ccc(-c2nn3ncccc3c2-c2ccnc(Nc3ccc(Cl)c(C(F)(F)F)c3)n2)cc1"
  inhibition / %: 2.55
- chemical.smiles: "Cc1ccc(NC(=O)c2ccnc(N3CCCC3)c2)cc1-c1ccc(C(=O)NCC2CC2)cc1"
  inhibition / %: 0.15

Consider the additional compound presented here.
Q. Name the reported inhibition value associated with the compound `COc1cccc(-n2ncc3c(N/N=C/c4cccc(F)c4)ncnc32)c1`
A. 1.3

----------
Target: Ephrin type-B receptor 3 (Homo sapiens) (UniProt P54753);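 further: reported value is the mean percent inhibition of EPHB3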
Sequence (P54753 whole entry): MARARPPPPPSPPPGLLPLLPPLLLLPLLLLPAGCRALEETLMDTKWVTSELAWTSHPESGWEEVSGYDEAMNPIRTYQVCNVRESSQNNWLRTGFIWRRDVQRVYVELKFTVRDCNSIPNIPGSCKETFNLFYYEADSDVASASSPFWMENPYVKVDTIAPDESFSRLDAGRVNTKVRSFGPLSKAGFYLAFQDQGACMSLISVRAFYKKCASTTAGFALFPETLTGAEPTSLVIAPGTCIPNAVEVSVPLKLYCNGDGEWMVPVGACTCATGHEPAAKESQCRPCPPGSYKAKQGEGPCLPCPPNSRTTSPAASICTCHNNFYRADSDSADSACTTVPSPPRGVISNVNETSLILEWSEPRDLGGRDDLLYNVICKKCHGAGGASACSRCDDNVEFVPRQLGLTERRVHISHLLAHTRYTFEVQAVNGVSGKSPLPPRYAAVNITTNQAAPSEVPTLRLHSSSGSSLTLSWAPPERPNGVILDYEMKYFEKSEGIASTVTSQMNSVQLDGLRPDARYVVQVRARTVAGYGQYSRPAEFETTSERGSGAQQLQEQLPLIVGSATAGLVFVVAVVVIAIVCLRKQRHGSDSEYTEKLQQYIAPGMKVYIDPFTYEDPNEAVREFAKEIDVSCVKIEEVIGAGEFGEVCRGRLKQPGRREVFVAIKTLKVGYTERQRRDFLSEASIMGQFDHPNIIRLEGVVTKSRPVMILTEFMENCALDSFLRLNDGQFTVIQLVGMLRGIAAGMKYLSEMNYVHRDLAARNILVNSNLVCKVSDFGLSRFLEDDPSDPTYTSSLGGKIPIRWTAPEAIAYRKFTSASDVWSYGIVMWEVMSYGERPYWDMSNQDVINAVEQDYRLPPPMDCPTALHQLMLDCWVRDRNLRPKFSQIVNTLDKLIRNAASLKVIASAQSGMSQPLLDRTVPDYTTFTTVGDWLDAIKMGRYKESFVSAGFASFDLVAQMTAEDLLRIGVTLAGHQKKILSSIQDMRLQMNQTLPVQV
Details: at 0.1 µM
Record form. Attribute: inhibition. Fill in for each entry.
Give bare numbers, in %.

- compound: "CC(=O)Nc1cccc(C#Cc2cncnc2Nc2ccc(OCc3cccc(F)c3)c(Cl)c2)n1"
  inhibition (%): -4.13
- compound: "CCn1c(-c2nonc2N)nc2c(C#CC(C)(C)O)nc(CN3CCCC3)cc21"
  inhibition (%): 2.42

Please look at the items below and tell me inhibition for each one, in order.
1. CS(=O)(=O)CCN(CC#N)Cc1ccc(-c2ccc3ncnc(Nc4ccc(OCc5cccc(F)c5)c(Cl)c4)c3c2)o1
2. Nc1nc(-c2ccccn2)c(-c2ccc3ncccc3n2)s1
3. CN(C)c1cc2c(Nc3ccc4nc(Cc5ccccc5)[nH]c4c3)ncnc2cn1
4. CCc1cccc(NC(=O)Nc2ccc(Oc3ccc4nc(NC(=O)OC)[nH]c4c3)cc2)c1
5. CC1=C(C(=O)Nc2ccc3[nH]ncc3c2)C(c2ccc(F)cc2)NC(=O)N1 (stereo not drawn)
6. COc1cc2ncn(-c3cc(O[C@H](C)c4ccccc4Cl)c(C(N)=O)s3)c2cc1OC

A.
-1.45
2.99
4.07
6.29
3.4
3.78

Please look at the items below and tell me inhibition for each one, in order.
1. COc1ccc(COc2ccc(Cc3cnc(N)nc3N)cc2OC)cc1
2. CCn1c(-c2nonc2N)nc2c(C#CC(C)(C)O)nc(OC[C@@H](N)c3ccccc3)cc21
3. CC1=C(C(=O)Nc2ccc3[nH]ncc3c2)C(c2ccc(Cl)c(Cl)c2)CC(=O)N1 (stereo not drawn)
4. Nc1nc(-c2ccc3c(c2)C(=Cc2cc(Br)c(O)c(Br)c2)C(=O)N3)cs1
5. O=C1Nc2ccc(C(=O)c3ccco3)cc2C1=Cc1cc(Cl)c(O)c(Cl)c1

A.
1. -1.18
2. 0.34
3. 3.28
4. -1.61
5. 4.56

Values compiled from ChEMBL document CHEMBL1961873.
